Data provenance is patent US7271165B2.

# Test system: E. faecalis
# test_details: MIC assay, E. faecalis
# Format: cell-based, Enterococcus faecalis

[
  {
    "compound": "CCOC(=O)NCC1CCN(c2cc(O)c3nc4c5c6c7c(C)c(O)c5c(=O)c(c-4oc3c2)NC(=O)C(C)=CC=CC(C)C(O)C(C)C(O)C(C)C(OC(C)=O)C(C)C(OC)C=COC(C)(O7)C6=O)CC1 (centres unmarked)",
    "readout_units": "µg/mL",
    "MIC (μg/mL) E. faecalis": 8
  },
  {
    "compound": "CO[C@H]1/C=C/O[C@@]2(C)Oc3c(C)c(O)c4c(=O)c(c5oc6cc(N7CCC(N(C)C)CC7)cc(O)c6nc-5c4c3C2=O)NC(=O)/C(C)=C\\C=C\\[C@H](C)[C@H](O)[C@@H](C)[C@@H](O)[C@@H](C)[C@H](OC(C)=O)[C@@H]1C",
    "readout_units": "µg/mL",
    "MIC (μg/mL) E. faecalis": 1
  },
  {
    "compound": "COC1C=COC2(C)Oc3c(C)c(O)c4c(=O)c(c5oc6cc(N7CCC(CNC(C)=O)CC7)cc(O)c6nc-5c4c3C2=O)NC(=O)C(C)=CC=CC(C)C(O)C(C)C(O)C(C)C(O)C1C (centres unmarked)",
    "readout_units": "µg/mL",
    "MIC (μg/mL) E. faecalis": 0.12
  },
  {
    "compound": "COC1C=COC2(C)Oc3c(C)c(O)c4c(=O)c(c5oc6cc(N7CC8CCCN(C)C8C7)cc(O)c6nc-5c4c3C2=O)NC(=O)C(C)=CC=CC(C)C(O)C(C)C(O)C(C)C(O)C1C (centres unmarked)",
    "readout_units": "µg/mL",
    "MIC (μg/mL) E. faecalis": 0.06
  },
  {
    "compound": "COC1C=COC2(C)Oc3c(C)c(O)c4c(=O)c(c5oc6cc(N7CCN(CCO)CC7)cc(O)c6nc-5c4c3C2=O)NC(=O)C(C)=CC=CC(C)C(O)C(C)C(O)C(C)C(O)C1C (centres unmarked)",
    "readout_units": "µg/mL",
    "MIC (μg/mL) E. faecalis": 0.12
  }
]
